Molecular target: T1, human MSLN-R1-his protein (human, UniProt Q13421 296-390)
T1 construct: Region 1 of human mesothelin, made in HEK293E cells, His-tagged; also called human MSLN-R1 protein; hMSLN-R1-his; not shown: His tag
T1 chain: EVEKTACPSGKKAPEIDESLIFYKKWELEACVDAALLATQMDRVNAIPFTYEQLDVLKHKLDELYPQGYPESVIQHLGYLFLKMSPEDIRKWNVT
Experiment: ELISA on coated MSLN-R1; antibody 0.01 nM
result type: OD450 (OD450)
Output spec: scalar in OD450, unitless text.

Exam item: # get_value(readout='OD450', item= S009-F8-36.12 (antibody, human IgG1, kappa, V domains shown) VH: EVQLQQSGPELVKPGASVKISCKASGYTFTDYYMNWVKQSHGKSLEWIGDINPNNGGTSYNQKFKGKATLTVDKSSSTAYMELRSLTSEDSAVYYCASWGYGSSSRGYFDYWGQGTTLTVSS VL: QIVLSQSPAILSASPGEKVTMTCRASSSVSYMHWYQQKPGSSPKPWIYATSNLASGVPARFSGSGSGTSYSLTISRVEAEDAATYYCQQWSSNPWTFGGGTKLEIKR )
Marked response: 0.04

Exam item: Form field: reported OD450 of S009-F8-22.23 (antibody, human IgG1, kappa, V domains shown) VH: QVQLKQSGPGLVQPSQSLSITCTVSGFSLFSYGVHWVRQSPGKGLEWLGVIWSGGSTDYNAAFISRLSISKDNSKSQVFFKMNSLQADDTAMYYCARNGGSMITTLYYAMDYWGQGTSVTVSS VL: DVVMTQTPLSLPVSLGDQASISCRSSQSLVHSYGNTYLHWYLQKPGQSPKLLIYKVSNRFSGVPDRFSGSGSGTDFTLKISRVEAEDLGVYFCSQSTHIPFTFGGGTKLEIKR
Marked response: 0.78

Exam item: Returns the measured OD450 for the input binder. Input: S009-F8-12.13 (antibody, human IgG1, kappa, V domains shown) VH: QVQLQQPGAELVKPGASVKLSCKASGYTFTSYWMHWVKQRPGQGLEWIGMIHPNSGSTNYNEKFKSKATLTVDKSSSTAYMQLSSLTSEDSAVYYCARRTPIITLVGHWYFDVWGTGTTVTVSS VL: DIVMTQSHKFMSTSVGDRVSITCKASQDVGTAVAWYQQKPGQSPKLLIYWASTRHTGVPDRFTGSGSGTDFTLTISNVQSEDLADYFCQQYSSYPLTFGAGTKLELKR
Marked response: 1.18

# credit: patent US20250250357A1
